assay.target: Carbonic anhydrase 2 (Homo sapiens) (UniProt P00918)
procedure.text: CAII small-molecule binders, profiling panel, biochemical, small-molecule microarray, Alexa647-labelled CAII (AID 1122)
condition.set: CAII-A647 binding fluorescence, higher = more signal
property.name: composite z-score

molecule	property.name	value.measured
COCCOC(=O)N1C(=O)[C@@]2(c3cc(C#Cc4ccc(OC)cc4)ccc31)[C@H](C(=O)N1CCN(c3ncccn3)CC1)[C@H]1C(=O)O[C@H](c3ccccc3)[C@H](c3ccccc3)N1[C@@H]2c1ccc(O)cc1	composite z-score	0.287
O=C1OCCC=C[C@H]2OC34C=CCN(Cc5ccccc5)C(=O)[C@H]3N(CCCO)C(=O)[C@@H]4C12 (stereo partly drawn)	composite z-score	0.897
CC(=CC1CCCCC1)[C@@H](NC(=O)c1ccc(C(F)(F)F)cc1)c1ccc(-c2ccccc2)cc1	composite z-score	-0.0824
CCCCCCCCCCC(O)C1C=CC2C(=O)N(Cc3ccccc3)C(=O)C2N1n1cnnc1 (stereo not drawn)	composite z-score	0.485
CC(C)(C)OC(=O)CC[C@]1(C(=O)N2CCCCC2)N=C(c2ccc(OCCCO)cc2)O[C@H]1c1ccccc1N=[N+]=[N-]	composite z-score	0.528
COCCOC(=O)N1C(=O)[C@@]2(c3cc(C#CCNC(N)=O)ccc31)[C@H](C(=O)N1CCN(c3ncccn3)CC1)[C@H]1C(=O)O[C@H](c3ccccc3)[C@H](c3ccccc3)N1[C@@H]2c1ccccc1OCCO	composite z-score	0.358
[N-]=[N+]=NCc1ccccc1[C@H]1OC(c2ccc(OCCCO)cc2)=N[C@@]1(CCS(=O)(=O)c1ccccc1)C(=O)N1CCOCC1	composite z-score	0.819
CCOC(=O)C1=CCC(C(C)(C)C)N(S(=O)(=O)c2ccc(C)cc2)C1 (stereo not drawn)	composite z-score	0.623
O=C/C=C/c1ccc(Cl)cc1	composite z-score	-0.457
COC(=O)[C@@]1(Cc2ccccc2)[C@H]2c3cc(C(=O)N4CCCC4)n(C)c3C[C@H]2CN1C(=O)c1ccccc1	composite z-score	0.912
O=C1O[C@@H](c2ccccc2)[C@@H](c2ccccc2)N2[C@@H](c3ccc(OCCO)cc3)[C@]3(C(=O)Nc4ccc(C#CC5=CCCCC5)cc43)[C@@H](C(=O)O)[C@H]12	composite z-score	0.499
CC(C)C(=C=CC[C@@H](O)c1ccccc1OCCO)C[C@@H](O)c1ccccn1	composite z-score	0.738
COCCOC(=O)N1C(=O)[C@@]2(c3cc(C#CCNC(N)=O)ccc31)[C@H](c1ccc(OCCO)cc1)N1[C@H](c3ccccc3)[C@H](c3ccccc3)OC(=O)[C@H]1[C@@H]2C(=O)N1CCc2cc(OC)c(OC)cc2C1	composite z-score	0.22
CS(=O)(=O)CCOC(=O)C1=CC(c2ccc(CO)cc2)=CC(C2CC2)N(Cc2cc3c(cc2Br)OCO3)C=C1C(=O)OCCS(C)(=O)=O (stereo not drawn)	composite z-score	0.618
O=C1OCCC/C=C\[C@H]2OC34C=CCN(Cn5nnc6ccccc65)C(=O)[C@H]3N(CCCCCO)C(=O)[C@@H]4C12 (stereo partly drawn)	composite z-score	0.881
CC(C)CNC(=O)[C@@]1(c2ccc([N+](=O)[O-])cc2)CC(=O)N(CC23CC4CC(CC(C4)C2)C3)[C@@H]1c1ccc(CO)cc1I	composite z-score	0.259
C=CCN1C(=O)[C@]2(O[C@H](CCO)[C@@H]([Si](C)(C)c3ccc(OC)cc3)[C@@H]2C)c2cc(NC(=O)[C@H](C)O)ccc21	composite z-score	0.56
Cc1cc(C)c(C(O)C2C=CC3C(=O)N(c4ccccc4)C(=O)C3N2Nc2ccc(C#N)cc2)c(C)c1 (stereo not drawn)	composite z-score	0.743
COCCOC(=O)N1C(=O)[C@@]2(c3cc(C#CCCO)ccc31)[C@H](c1ccc(O)cc1)N1[C@H](c3ccccc3)[C@H](c3ccccc3)OC(=O)[C@H]1[C@@H]2C(N)=O	composite z-score	0.738
COC(=O)c1c(CC[C@@H](CO)NC(=O)N[C@@H](Cc2ccccc2)Cn2cc(C3(O)CCCCC3)nn2)oc(C(C)=O)c1C(=O)OC	composite z-score	0.253
O=C1O[C@@H](c2ccccc2)[C@@H](c2ccccc2)N2[C@@H](c3ccc(OCCO)cc3)[C@]3(C(=O)Nc4ccccc43)[C@@H](C(=O)Nc3nc4ccccc4s3)[C@H]12	composite z-score	0.593
CCC(CC)C(O)C1C=CC2C(=O)N(c3ccccc3)C(=O)C2N1Nc1ccc(C#N)cc1 (stereo not drawn)	composite z-score	0.729
COCC1=C2[C@@H](CCc3ccccc3)OB(O)C[C@@H]2[C@@H]2C(=O)N(Cc3ccccc3)C(=O)[C@@H]2C1	composite z-score	0.404
O=C1O[C@@H](c2ccccc2)[C@@H](c2ccccc2)N2[C@@H](c3ccc(O)cc3)[C@]3(C(=O)Nc4ccc(C#CC5=CCCCC5)cc43)[C@@H](C(=O)O)[C@H]12	composite z-score	0.715
Cc1ccc(S[C@]2(C(=O)NCc3ccccc3)CC(=O)N(Cc3ccccc3)[C@@H]2c2ccc(CO)cc2)cc1	composite z-score	0.654
O=c1oc(-c2ccccc2)nc2cc(Br)ccc12	composite z-score	-0.0912
O=C1C2C=CC(C(O)c3ccc(F)cc3)N(Nc3ccccc3)C2C(=O)N1c1ccccc1 (stereo not drawn)	composite z-score	0.734
COC(=O)c1ccc(C23CC2(C(NP(=O)(c2ccccc2)c2ccccc2)c2ccccc2)C3)cc1 (stereo not drawn)	composite z-score	0.819
